System: Klebsiella pneumoniae
assay: Antibacterial activity against wild type Klebsiella pneumoniae ATCC 35657 by CLSI M100-S17 protocol based method
Type: functional
measuredProperty: MIC (µg/mL)
Hi! Could you send only the number? It should be in µg/mL, unit omitted.

These recorded examples may help you get a feel for the data.
Cn1c(CNC2(C)CCC2)cc2cc3c(cc21)CCCc1c-3[nH]c(=O)c(C(=O)O)c1O : 1
Cc1c(-c2ccc3c(c2)cc(CN(C)C)n3C)[nH]c(=O)c(C(=O)O)c1O : 6.3
Cn1c(CN2CCCC2)cc2cc3c(cc21)CCCc1c-3[nH]c(=O)c(C(=O)O)c1O : 0.78
CN(C)Cc1cc2cc3c(cc2n1C)CCCc1c-3[nH]c(=O)c(C(=O)O)c1O : 0.78

For reference, reported MIC for CCNCc1cc2cc3c(cc2n1C)OCCc1c-3[nH]c(=O)c(C(=O)O)c1O stands at 0.78

For reference, reported MIC for COC1CCN(Cc2cc3cc4c(cc3n2C)CCCc2c-4[nH]c(=O)c(C(=O)O)c2O)C1 (centres undefined) stands at 3.1

For reference, reported MIC for COC1CCN(Cc2cc3cc4c(cc3n2C)OCCc2c-4[nH]c(=O)c(C(=O)O)c2O)C1 (centres undefined) stands at 15.6

For reference, reported MIC for Cn1c(CN2CCCC2)cc2cc3c(cc21)OCCc1c-3[nH]c(=O)c(C(=O)O)c1O stands at 2

For reference, reported MIC for CC(C)NCc1cc2cc3c(cc2n1C)COCc1c-3[nH]c(=O)c(C(=O)O)c1O stands at 3.1

For reference, reported MIC for Cn1c(CN2CCCC2)cc2cc3c(cc21)SCCc1c-3[nH]c(=O)c(C(=O)O)c1O stands at 2

For reference, reported MIC for CCNCc1cc2cc(-c3[nH]c(=O)c(C(=O)O)c(O)c3CC)ccc2n1C stands at 0.39

For reference, reported MIC for CNCc1cc2cc3c(cc2n1C)OCCc1c-3[nH]c(=O)c(C(=O)O)c1O stands at 1.6

For reference, reported MIC for CCNCc1cc2cc3c(cc2n1C)CCCc1c-3[nH]c(=O)c(C(=O)O)c1O stands at 0.78

For reference, reported MIC for CNCc1cc2cc3c(cc2n1C)SCCc1c-3[nH]c(=O)c(C(=O)O)c1O stands at 1

For reference, reported MIC for Cn1c(CNC2(C)CCC2)cc2cc3c(cc21)OCCc1c-3[nH]c(=O)c(C(=O)O)c1O stands at 1

For reference, reported MIC for CCNCc1cc2cc3c(cc2n1C)NCCc1c-3[nH]c(=O)c(C(=O)O)c1O stands at 6.3
